All figures here come from PubChem BioAssay.

# z-score listing for each entry below
# Test Description: mitochondrial membrane potential change in A549 cells, profiling panel, cell-based, JC-1 fluorescence, basal, 24 h, 100 nL (AID 1138);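 further: A549 lung adenocarcinoma cells under basal conditions with no added stimulus; test concentration not given here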
# Reported Conditions: higher = more signal
Hey, just send me the number, nothing else.

Please review the following examples before continuing.
Cpd Smiles: Cc1ccc(S[C@]2(C(=O)NCC(C)C)CC(=O)N(C(C)C)[C@@H]2c2ccc(CO)cc2)cc1
Measured Property: z-score
Observed: 0.69
//
Cpd Smiles: COCCCNC(=O)[C@@]1(Cc2ccccc2)N=C(c2ccc(OCCCO)cc2)O[C@H]1c1ccccc1N=[N+]=[N-]
Measured Property: z-score
Observed: 2.03
//
Cpd Smiles: NCCCCCNC(=O)[C@H]1C[C@H]2C(=O)NCC(=O)N2[C@H]1c1ccc(O)cc1
Measured Property: z-score
Observed: 0.68
//
Cpd Smiles: O=C1c2ccccc2[C@](Cc2ccccc2I)(C(=O)O)[C@H](c2ccc(CO)cc2)N1Cc1ccccc1Cl
Measured Property: z-score
Observed: 0.712

Below: the item to evaluate.
The compound identified as `CCCCC(=C=CC[C@H](O)c1cccc(OCCO)c1)CCO` registered its z-score at 1.97

====

# Test Description: small-molecule microarray binders of probe aXIP, primary screen, biochemical, NeuroSMM set, 635/667 nm fluorescence (AID 1119);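 further: probe is the protein aXip251-270 applied at 1 µg/mL to compound-printed slides; binding of probe to printed compounds measured as 667 nm fluorescence plus signal to noise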
# Reported Conditions: higher = more signal, called active from +8 up or from −8 down
The threshold is inclusive: composite Z-score of exactly 0.09 counts as 1.0; values below receive 0.0.

Answered cases to consult:
Cpd Smiles: O=C(NCC(F)(F)F)[C@@H]1c2ccccc2C(=O)N(C2Cc3ccccc3C2)[C@H]1c1ccc(CO)cc1
Label Value: 0.0

Cpd Smiles: C=CC[C@]1(C(=O)N(C)C)N=C(c2ccc(OCCCO)cc2)O[C@H]1c1ccccc1CN=[N+]=[N-]
Label Value: 1.0

Cpd Smiles: CC(C)(C)OC(=O)CC[C@@]1(C(=O)N2CCOCC2)N=C(c2ccc(OCCCO)cc2)O[C@@H]1c1ccccc1
Label Value: 0.0

Cpd Smiles: O=C(NO)[C@]1(Cc2ccccc2)N=C(c2ccc(OCCCO)cc2)O[C@@H]1c1ccccc1
Label Value: 0.0

Cpd Smiles: O=C1c2ccccc2[C@@]2(Cc3ccccc3N(CC(F)(F)F)C2=O)[C@H](c2ccc(CO)cc2)N1Cc1ccccc1C(F)(F)F
Label Value: 1.0

Cpd Smiles: C=C(C(=O)CC[C@@H](OC(C)=O)c1ccccc1OCCO)C(C)C
Label Value: 1.0

Cpd Smiles: COCCOC(=O)N1C(=O)[C@@]2(c3cc(C#CC4(O)CCCCCC4)ccc31)[C@H](C(=O)NC[C@H](O)c1ccccc1)[C@H]1C(=O)O[C@H](c3ccccc3)[C@H](c3ccccc3)N1[C@@H]2c1ccccc1OCCO
Label Value: 1.0

Cpd Smiles: O=C(O)[C@H]1C[C@H]2C(=O)N[C@@H](Cc3ccccc3)C(=O)N2[C@H]1c1ccc(O)cc1
Label Value: 1.0

Inquiry: Given `[N-]=[N+]=Nc1ccccc1[C@H]1OC(c2ccc(OCCCO)cc2)=N[C@@]1(Cc1ccccc1)C(N)=O` , state whether its composite Z-score is at least 0.09.
Reply text: 1.0

====

composite z-score for assorted compounds
# Tested Target: Carbonic anhydrase 2 (Homo sapiens) (UniProt P00918)
# Test Description: CAII small-molecule binders, profiling panel, biochemical, small-molecule microarray, Alexa647-labelled CAII (AID 1122)
# Reported Conditions: CAII-A647 binding fluorescence, higher = more signal
No unit in the answer, only the number.

Completed entries (count: 5):
Compound: COc1ccc(CCNC(=O)[C@@]2(Sc3ccc(C)cc3)CC(=O)N(Cc3ccccc3)[C@@H]2c2ccc(CO)cc2I)cc1
Measured Property: composite z-score
Observed: 0.377
--
Compound: CC(C)[C@@H](C(=O)O)n1cc(-c2ccccn2)nn1
Measured Property: composite z-score
Observed: 0.525
--
Compound: NC(=O)N1C(=O)C2C(C1=O)C1C=C(c3ccc(CO)cc3)C2C(C2CC2)N1Cc1cc2c(cc1Br)OCO2 (stereo not given)
Measured Property: composite z-score
Observed: 0.762
--
Compound: CC(C)(C)OC(=O)CC[C@@]1(C(=O)N2CCOCC2)N=C(c2ccc(OCCCO)cc2)O[C@@H]1c1ccccc1
Measured Property: composite z-score
Observed: 0.904
--
Compound: O=C(NCc1ccccc1)[C@@H]1c2ccccc2C(=O)N(Cc2ccccc2Cl)[C@H]1c1ccc(CO)cc1
Measured Property: composite z-score
Observed: 0.693

Memo: `C=CCN1C(=O)[C@]2(O[C@H](CCn3cc([C@H](O)c4ccccc4)nn3)[C@@H]([Si](C)(C)c3ccc(OC)cc3)[C@@H]2C)c2cc(N3CCOC3=O)ccc21` , reported composite z-score: 0.521

====

# Test Description: small-molecule microarray binders of probe aDKK1, primary screen, biochemical, biotinylated probe, 635/667 nm fluorescence (AID 1099);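 further: score merges 667nm spot fluorescence with signal to noise across triplicate slides; reference of the scale not given here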
# Reported Conditions: higher = more signal
# composite z-score per record follows
Please give only the number in your answer, with no unit.

Some compounds with known composite z-score results, for comparison:
Compound: C#CCN1C(C(=O)OCC)OC[C@H]1c1ccccc1 (stereo partly drawn)
composite z-score: 0.461
//
Compound: Cc1ccc(N2C(=O)c3ccccc3[C@](C)(C(=O)NCC(F)(F)F)[C@@H]2c2ccc(CO)cc2)nc1
composite z-score: 0.421

Switching to the query record.
Reported composite z-score ( `O=C(NO)[C@]1(Cc2ccccc2)N=C(c2ccc(OCCCO)cc2)O[C@@H]1c1ccccc1` ) = 0.256

====

Listing: composite z-score of selected compounds
# Tested Target: Carbonic anhydrase 2 (Homo sapiens) (UniProt P00918)
# Test Description: CAII small-molecule binders, profiling panel, biochemical, small-molecule microarray, Alexa647-labelled CAII (AID 1122)
# Reported Conditions: CAII-A647 binding fluorescence, higher = more signal
// return just the number, without any unit appended

Compound: CC(C)(C)OC(=O)CC[C@@]1(C(=O)NCc2ccccc2)N=C(c2ccc(OCCCO)cc2)O[C@@H]1c1ccccc1CN=[N+]=[N-]
Measured Property: composite z-score
Observed: 0.596
//
Compound: COc1ccc(/C=C/C(=O)c2cccc(OCC(=O)OC(C)(C)C)c2)cc1
Measured Property: composite z-score
Observed: -0.0082
//
Compound: C=CCN1C(=O)[C@@]2(O[C@@H](CCn3cc(CCO)nn3)[C@H]([Si](C)(C)c3ccc(OC)cc3)[C@H]2C)c2cc(NC(=O)c3ccc(OC)cc3)ccc21
Measured Property: composite z-score
Observed: 0.156
//
Compound: Cc1ccc(S[C@]2(C(=O)NCCN3CCOCC3)CC(=O)N(Cc3cc(C(F)(F)F)cc(C(F)(F)F)c3)[C@@H]2c2ccc(CO)cc2)cc1
Measured Property: composite z-score
Observed: 0.78
//
Compound: Cc1ccc(S[C@]2(C(=O)NC3CC3)CC(=O)N(Cc3ccccc3C(F)(F)F)[C@@H]2c2ccc(CO)cc2I)cc1
Measured Property: composite z-score
Observed: 0.653

The recorded composite z-score for `CC(=O)NCCCC[C@@H]1NC(=O)[C@@H]2C[C@H](C(=O)O)[C@H](c3cccc(OCCO)c3)N2C1=O` is 0.276

The compound C=CCC(OC(C)=O)[C@@H]1[C@@H](N(Cc2cccc3ccccc23)C(=O)Cc2ccc(OC)cc2)c2cc(OCCCO)ccc2N1C(=O)Cc1ccc(OC)cc1 (stereo partly drawn) showed composite z-score equal to 0.207

Measured composite z-score, `CCOC(=O)C[C@H]1[C@H](OC(=O)c2ccc(-c3ccccc3)cc2)[C@@H](NC(=O)C2CCCCC2)c2cc(OCCCO)ccc2N1C(=O)c1ccc2ccccc2n1` : -0.252

====

# Test Description: HepG2 liver cancer cell viability effects, profiling panel, resazurin fluorescence, 24 h, PK04 Diversity Set (AID 1172); further: test concentration not given here
# Reported Conditions: higher = more signal
Measured Property: z-score
Format: numeric value only, no unit, no commentary.

Compound: CCCNC(=O)[C@@H]1c2ccccc2C(=O)N(Cc2cc(C(F)(F)F)cc(C(F)(F)F)c2)[C@H]1c1ccc(CO)cc1
Measured Property: z-score
Observed: 0.397

Compound: CCOC(=O)C[C@H]1[C@H](OC(=O)c2cc3ccccc3oc2=O)[C@@H](NC(=O)c2ccccc2)c2cc(OCCCO)ccc2N1C(=O)Cc1ccc(OC)cc1
Measured Property: z-score
Observed: -0.259

Compound: CC(C)C(CO)N1C(=O)[C@@H]2[C@H]3C(=O)OCC=C[C@H]3OC23C=CCN(Cc2ccccc2)C(=O)[C@@H]13 (stereo partly specified)
Measured Property: z-score
Observed: 0.25

Compound: Cc1ccc(S[C@]2(C(=O)NCCN3CCOCC3)CC(=O)N(Cc3cc(C(F)(F)F)cc(C(F)(F)F)c3)[C@@H]2c2ccc(CO)cc2)cc1
Measured Property: z-score
Observed: 1.08

Compound: COCCOC(=O)N1C(=O)[C@@]2(c3cc(C#CCCO)ccc31)[C@H](c1ccccc1OCCO)N1[C@H](c3ccccc3)[C@H](c3ccccc3)OC(=O)[C@H]1[C@@H]2C(=O)NC[C@H](O)c1ccccc1
Measured Property: z-score
Observed: 1.43

Now consider the entry below.
Just so you know, measured z-score for `COc1ccc(CCNC(=O)[C@@]2(Sc3ccc(C)cc3)CC(=O)N(Cc3ccccc3)[C@@H]2c2ccc(CO)cc2I)cc1` came out at 0.278
